Each recorded value in this set is attributed to paper PMC9516332.

inhibition at 1 µM listing for selected molecules.
# system_tested: panel of 255 wild-type kinases (Homo sapiens)
# Sequence (Q00535 whole entry): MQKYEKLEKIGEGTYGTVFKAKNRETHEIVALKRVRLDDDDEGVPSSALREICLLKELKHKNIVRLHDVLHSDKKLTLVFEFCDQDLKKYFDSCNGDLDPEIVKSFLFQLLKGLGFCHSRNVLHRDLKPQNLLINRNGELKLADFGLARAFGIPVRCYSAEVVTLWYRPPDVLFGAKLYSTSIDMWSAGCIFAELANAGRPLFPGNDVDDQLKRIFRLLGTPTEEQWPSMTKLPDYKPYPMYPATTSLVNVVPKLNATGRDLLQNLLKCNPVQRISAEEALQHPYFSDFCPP
# assay_comment: Kinase panel profiling at 1 µmol/L (MSA or IMAP), percentage inhibition
# Type: biochemical
# condition_info: CDK5/p25 kinase assay; 1 µmol/L single concentration; read-out: %-inhibition CDK5/p25
observed_property: inhibition at 1 µM (%)

1) C=CC(=O)N1CCC([C@@H]2CCNc3c(C(N)=O)c(-c4ccc(Oc5ccccc5)cc4)nn32)CC1
-17
2) COC(=O)N[C@@H](C)CNc1nccc(-c2cn(C(C)C)nc2-c2cc(Cl)cc(NS(C)(=O)=O)c2F)n1
-17
3) Cn1cnc2c(F)c(Nc3ccc(Br)cc3Cl)c(C(=O)NOCCO)cc21
-11
4) COc1cc2ncnc(Nc3ccc(F)c(Cl)c3)c2cc1NC(=O)/C=C/CN1CCCCC1
-29
5) C[C@H]1Oc2cc(cnc2N)-c2c(nn(C)c2C#N)CN(C)C(=O)c2ccc(F)cc21
-9
6) CCc1nc(C(N)=O)c(Nc2ccc(N3CCC(N4CCN(C)CC4)CC3)c(OC)c2)nc1NC1CCOCC1
25
7) CO[C@]1(C(=O)N[C@@H](C)c2ccc(-n3cc(F)cn3)nc2)CC[C@H](c2nc(C)cc(Nc3cc(C)[nH]n3)n2)CC1
43
8) COc1ccc(CN2C3CC2CN(c2ccc(-c4cc(OCC(C)(C)O)cn5ncc(C#N)c45)cn2)C3)cn1
-8.52
9) CCn1c(=O)c(-c2cc(NC(=O)Nc3ccccc3)c(F)cc2Br)cc2cnc(NC)cc21
-19
10) Cn1cc(-c2cc3c(N4CCN(c5ncc([C@@](C)(N)c6ccc(F)cc6)cn5)CC4)ncnn3c2)cn1
11
11) Cn1cnc2c(F)c(Nc3ccc(Br)cc3F)c(C(=O)NOCCO)cc21
-21
12) O=C(Nc1cnn2ccc(N3CCC[C@@H]3c3cc(F)ccc3F)nc12)N1CC[C@H](O)C1
-22
13) CCN1C(=O)N(c2c(F)c(OC)cc(OC)c2F)Cc2cnc3[nH]c(CN4CCOCC4)cc3c21
-12
14) Cc1cc(Nc2ncnc3ccc(NC4=NC(C)(C)CO4)cc23)ccc1Oc1ccn2ncnc2c1
-5
15) C[C@H](Nc1ncnc2nc[nH]c12)c1cc2cccc(Cl)c2c(=O)n1-c1ccccc1
-11
16) FC(F)(F)c1ccc(CNc2ccc(Cc3c[nH]c4ncc(Cl)cc34)cn2)cn1
-21
17) CCN1CCN(c2ccc(Nc3cc(N(C)C(=O)Nc4c(Cl)c(OC)cc(OC)c4Cl)ncn3)cc2)CC1
-17
18) Cc1nc(NC(=O)N2CCC[C@H]2C(N)=O)sc1-c1ccnc(C(C)(C)C(F)(F)F)c1
-14

====

# Tested on: panel of 255 wild-type kinases
# assay_comment: Kinase panel profiling at 1 µmol/L (MSA or IMAP), percentage inhibition
# Type: biochemical
# condition_info: kinase LYNb; 1 µmol/L single concentration
observed_property: %-inhibition at 1 µmol/L, LYNb (%)

1) FC(F)(F)c1ccc(CNc2ccc(Cc3c[nH]c4ncc(Cl)cc34)cn2)cn1 [pexidartinib]
19
2) C[C@H](Nc1ncnc2nc[nH]c12)c1cc2cccc(Cl)c2c(=O)n1-c1ccccc1 [duvelisib]
3
3) COc1cc2ncnc(Nc3ccc(F)c(Cl)c3)c2cc1NC(=O)/C=C/CN1CCCCC1 [dacomitinib]
74
4) CO[C@]1(C(=O)N[C@@H](C)c2ccc(-n3cc(F)cn3)nc2)CC[C@H](c2nc(C)cc(Nc3cc(C)[nH]n3)n2)CC1 [pralsetinib]
89
5) O=C(Nc1cnn2ccc(N3CCC[C@@H]3c3cc(F)ccc3F)nc12)N1CC[C@H](O)C1 [larotrectinib]
1.48
6) CCn1c(=O)c(-c2cc(NC(=O)Nc3ccccc3)c(F)cc2Br)cc2cnc(NC)cc21 [ripretinib]
85
7) Cc1nc(NC(=O)N2CCC[C@H]2C(N)=O)sc1-c1ccnc(C(C)(C)C(F)(F)F)c1 [alpelisib]
4.67
8) CCN1CCN(c2ccc(Nc3cc(N(C)C(=O)Nc4c(Cl)c(OC)cc(OC)c4Cl)ncn3)cc2)CC1 [infigratinib]
84
9) C=CC(=O)N1CCC([C@@H]2CCNc3c(C(N)=O)c(-c4ccc(Oc5ccccc5)cc4)nn32)CC1 [zanubrutinib]
55
10) Cn1cnc2c(F)c(Nc3ccc(Br)cc3F)c(C(=O)NOCCO)cc21 [binimetinib]
4.22
11) Cc1cc(Nc2ncnc3ccc(NC4=NC(C)(C)CO4)cc23)ccc1Oc1ccn2ncnc2c1 [tucatinib]
6
12) C[C@H]1Oc2cc(cnc2N)-c2c(nn(C)c2C#N)CN(C)C(=O)c2ccc(F)cc21 [lorlatinib]
22
13) CCc1nc(C(N)=O)c(Nc2ccc(N3CCC(N4CCN(C)CC4)CC3)c(OC)c2)nc1NC1CCOCC1 [gilteritinib]
84
14) CCN1C(=O)N(c2c(F)c(OC)cc(OC)c2F)Cc2cnc3[nH]c(CN4CCOCC4)cc3c21 [pemigatinib]
64
15) Cn1cnc2c(F)c(Nc3ccc(Br)cc3Cl)c(C(=O)NOCCO)cc21 [selumetinib]
7
16) Cn1cc(-c2cc3c(N4CCN(c5ncc([C@@](C)(N)c6ccc(F)cc6)cn5)CC4)ncnn3c2)cn1 [avapritinib]
83
17) COC(=O)N[C@@H](C)CNc1nccc(-c2cn(C(C)C)nc2-c2cc(Cl)cc(NS(C)(=O)=O)c2F)n1 [encorafenib]
4
18) COc1ccc(CN2C3CC2CN(c2ccc(-c4cc(OCC(C)(C)O)cn5ncc(C#N)c45)cn2)C3)cn1 [selpercatinib]
52
